Here, each record is paired with measured EC50 data.
Target: human MCH-1R (Homo sapiens)
Test: Aequorin bioluminescence functional assay, MCH-1R
Where a SMILES comes first, the peptide text is derived from it. Bridges are numbered along the chain shown (N, C = ends). [ ]: non-standard residue; d: D form. Arg(NO2) = N=C(NCCC[C@H](N)C(=O)O)N[N+](=O)[O-]
RECORDED ENDPOINT: EC50

[
  {
    "COMPOUND": "CC(=O)N[C@@H](CCCNC(=N)N)C(=O)N[C@H]1CSSC[C@@H](C(N)=O)NC(=O)[C@@H]2CCCN2C(=O)[C@H](CCCNC(=N)N)NC(=O)[C@H](Cc2ccc(O)cc2)NC(=O)[C@H](C(C)C)NC(=O)[C@H](CCCCNC(=N)N)NC(=O)[C@@H](C)NC(=O)[C@H](CC(C)C)NC(=O)[C@H](C)NC1=O [compound 38]",
    "TEST VALUE": "> 10 µM"
  },
  {
    "COMPOUND": "CSCC[C@@H]1NC(=O)[C@@H](NC(=O)[C@H](CCCNC(=N)N)NC(C)=O)CSSC[C@@H](C(N)=O)NC(=O)[C@@H]2CCCN2C(=O)[C@H](CCCNC(=N)N)NC(=O)[C@H](Cc2ccc(O)cc2)NC(=O)[C@H](C(C)C)NC(=O)[C@H](CCCNC(=N)N)NC(=O)[C@H](c2ccccc2)NC(=O)[C@H](CC(C)C)NC1=O [compound 12]",
    "TEST VALUE": "> 10 µM"
  },
  {
    "COMPOUND": "CSCC[C@@H]1NC(=O)[C@@H](NC(=O)[C@H](CCCNC(=N)N)NC(C)=O)CSSC[C@@H](C(N)=O)NC(=O)[C@@H]2CCCN2C(=O)[C@H](CCCNC(=N)N)NC(=O)[C@H](Cc2ccc(O)cc2)NC(=O)[C@H](C(C)C)NC(=O)[C@H](CCCNC(=N)N[N+](=O)[O-])NC(=O)[C@@H](C)NC(=O)[C@H](CC(C)C)NC1=O [compound 37] (Ac-RCML[dA][Arg(NO2)]VYRPC-NH2; disulfide 2-11)",
    "TEST VALUE": "> 10 µM"
  },
  {
    "COMPOUND": "CSCC[C@@H]1NC(=O)[C@@H](NC(=O)[C@H](CCCNC(=N)N)NC(C)=O)CSSC[C@@H](C(N)=O)NC(=O)[C@@H]2CCCN2C(=O)[C@H](CCCNC(=N)N)NC(=O)[C@H](Cc2ccc(O)cc2)NC(=O)[C@H](C(C)C)NC(=O)[C@H](CCCNC(=N)N[N+](=O)[O-])NC(=O)CNC(=O)[C@H](CC(C)C)NC1=O [compound 25]",
    "TEST VALUE": "> 1 µM"
  }
]

---

Molecular target: human MCH-1R (Homo sapiens)
Where a SMILES comes first, the peptide text is derived from it. Bridges are numbered along the chain shown (N, C = ends).
Here, each record is paired with measured IC50 data.
RECORDED ENDPOINT: IC50 (nM)

[
  {
    "COMPOUND": "CSCC[C@@H]1NC(=O)[C@@H](NC(=O)[C@H](CCCNC(=N)N)NC(C)=O)CSSC[C@@H](C(N)=O)NC(=O)[C@@H]2CCCN2C(=O)[C@H](CCCNC(=N)N)NC(=O)[C@H](Cc2ccc(O)cc2)NC(=O)[C@H](C(C)C)NC(=O)[C@H](C)NC(=O)CNC(=O)[C@H](CC(C)C)NC1=O [compound 23] (Ac-RCMLGAVYRPC-NH2; disulfide 2-11)",
    "TARGET": "human MCH-1R (Homo sapiens)",
    "QUALIFIER SIGN": ">",
    "TEST VALUE": 1000
  },
  {
    "COMPOUND": "CSCC[C@@H]1NC(=O)[C@@H](NC(=O)[C@H](CCCNC(=N)N)NC(C)=O)CSSC[C@@H](C(N)=O)NC(=O)[C@@H]2CCCN2C(=O)[C@H](CCCNC(=N)N)NC(=O)[C@H](Cc2ccc(O)cc2)NC(=O)[C@H](C(C)C)NC(=O)[C@H](CCCNC(=N)N)NC(=O)[C@@H](CO)NC(=O)[C@H](CC(C)C)NC1=O",
    "TARGET": "human MCH-1R (Homo sapiens)",
    "QUALIFIER SIGN": "=",
    "TEST VALUE": 31
  }
]

---

Biological target: human MCH-1R (Homo sapiens, UniProt Q99705)
Sequence (Q99705 whole entry): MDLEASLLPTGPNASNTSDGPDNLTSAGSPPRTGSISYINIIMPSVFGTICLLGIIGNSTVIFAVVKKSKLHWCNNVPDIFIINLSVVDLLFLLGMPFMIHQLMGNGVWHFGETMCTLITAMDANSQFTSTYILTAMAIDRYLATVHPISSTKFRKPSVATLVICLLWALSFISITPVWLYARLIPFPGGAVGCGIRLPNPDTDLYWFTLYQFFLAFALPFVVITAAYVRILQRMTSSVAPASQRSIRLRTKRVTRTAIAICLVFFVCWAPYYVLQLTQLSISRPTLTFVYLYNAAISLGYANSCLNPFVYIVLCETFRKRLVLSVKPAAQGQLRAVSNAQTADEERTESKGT
Test: Aequorin bioluminescence functional assay, MCH-1R
Settings: Table 1; % Activation at 10 μM, aequorin functional assay
Where a SMILES comes first, the peptide text is derived from it. Bridges are numbered along the chain shown (N, C = ends). [ ]: non-standard residue; d: D form. hArg = N=C(N)NCCCC[C@H](N)C(=O)O
RECORDED ENDPOINT: MCH-1R Activation %

[
  {
    "MOLECULE": "CSCC[C@@H]1NC(=O)[C@@H](NC(=O)[C@H](CCCNC(=N)N)NC(C)=O)CSSC[C@@H](C(N)=O)NC(=O)[C@@H]2CCCN2C(=O)[C@H](CCCNC(=N)N)NC(=O)[C@H](Cc2ccc(O)cc2)NC(=O)[C@H](C(C)C)NC(=O)[C@H](CCCNC(=N)N)NC(=O)[C@H](C)NC(=O)[C@H](CC(C)C)NC1=O [compound 7]",
    "TEST VALUE": "104%"
  },
  {
    "MOLECULE": "CSCC[C@@H]1NC(=O)[C@@H](NC(=O)[C@H](CCCNC(=N)N)NC(C)=O)CSSC[C@@H](C(N)=O)NC(=O)[C@@H]2CCCN2C(=O)[C@H](CCCNC(=N)N)NC(=O)[C@H](Cc2ccc(O)cc2)NC(=O)[C@H](C(C)C)NC(=O)[C@H](CCCNC(=N)N)NC(=O)[C@@H](C)NC(=O)[C@H](CC(C)C)NC1=O [compound 13]",
    "TEST VALUE": "40%"
  },
  {
    "MOLECULE": "CSCC[C@@H]1NC(=O)[C@@H](NC(=O)[C@H](CCCNC(=N)N)NC(C)=O)CSSC[C@@H](C(N)=O)NC(=O)[C@@H]2CCCN2C(=O)[C@H](CCCNC(=N)N)NC(=O)[C@H](Cc2ccc(O)cc2)NC(=O)[C@H](C(C)C)NC(=O)[C@H](CCCNC(=N)N)NC(=O)C(C)(C)NC(=O)[C@H](CC(C)C)NC1=O [compound 11]",
    "TEST VALUE": "22%"
  },
  {
    "MOLECULE": "CSCC[C@@H]1NC(=O)[C@@H](NC(=O)[C@H](CCCNC(=N)N)NC(C)=O)CSSC[C@@H](C(N)=O)NC(=O)[C@@H]2CCCN2C(=O)[C@H](CCCNC(=N)N)NC(=O)[C@H](Cc2ccc(O)cc2)NC(=O)[C@H](C(C)C)NC(=O)[C@H](CCCNC(=N)N)NC(=O)[C@H](c2ccccc2)NC(=O)[C@H](CC(C)C)NC1=O [compound 12]",
    "TEST VALUE": "0.1%"
  },
  {
    "MOLECULE": "CSCC[C@@H]1NC(=O)[C@@H](NC(=O)[C@H](CCCNC(=N)N)NC(C)=O)CSSC[C@@H](C(N)=O)NC(=O)[C@@H]2CCCN2C(=O)[C@H](CCCNC(=N)N)NC(=O)[C@H](Cc2ccccc2)NC(=O)[C@H](C(C)C)NC(=O)[C@H](CCCNC(=N)N)NC(=O)CNC(=O)[C@H](CC(C)C)NC1=O [compound 27]",
    "TEST VALUE": "96%"
  },
  {
    "MOLECULE": "CSCC[C@@H]1NC(=O)[C@@H](NC(=O)[C@H](CCCNC(=N)N)NC(C)=O)CSSC[C@@H](C(N)=O)NC(=O)[C@@H]2CCCN2C(=O)[C@H](CCCNC(=N)N)NC(=O)[C@H](Cc2ccc(O)cc2)NC(=O)[C@H](C(C)C)NC(=O)[C@H](CCCCNC(=N)N)NC(=O)[C@@H](C)NC(=O)[C@H](CC(C)C)NC1=O [compound 36] (Ac-RCML[dA][hArg]VYRPC-NH2; disulfide 2-11)",
    "TEST VALUE": "0.1%"
  },
  {
    "MOLECULE": "CSCC[C@@H]1NC(=O)[C@@H](NC(=O)[C@H](CCCNC(=N)N)NC(C)=O)CSSC[C@@H](C(N)=O)NC(=O)[C@@H]2CCCN2C(=O)[C@H](CCCNC(=N)N)NC(=O)[C@H](Cc2ccc(O)cc2)NC(=O)[C@H](C(C)C)NC(=O)[C@H](CCCNC(=N)N)NC(=O)[C@H](CC(C)C)NC(=O)[C@H](CC(C)C)NC1=O [compound 8]",
    "TEST VALUE": "106%"
  },
  {
    "MOLECULE": "CSCC[C@@H]1NC(=O)[C@@H](NC(=O)[C@H](CCCNC(=N)N)NC(C)=O)CSSC[C@@H](C(N)=O)NC(=O)[C@@H]2CCCN2C(=O)[C@H](CCCNC(=N)N)NC(=O)[C@H](Cc2ccc(O)cc2)NC(=O)[C@H](C(C)C)NC(=O)[C@H](CCCCNC(=N)N)NC(=O)CNC(=O)[C@H](CC(C)C)NC1=O [compound 24]",
    "TEST VALUE": "72%"
  }
]
